# protocol-text: collision cross section (TIMS, N2 drift gas) of the primary ion; higher = larger gas-phase ion size
# experimental-conditions: ionization mode: ESI-; ion species: [M-H]-
reported-property: collision cross section (Å²)

N#Cc1nn(-c2c(Cl)cc(C(F)(F)F)cc2Cl)c(N)c1SC(F)(F)F [Fipronil sulfide] : 173.94
C[C@]12C=CC(=O)C=C1CC[C@@H]1[C@@H]2[C@@H](O)C[C@@]2(C)[C@H]1CC[C@]2(O)C(=O)CO [Prednisolone] : 182.17
Cn1cc(C(=O)Nc2ccccc2-c2cc(F)c(F)c(F)c2)c(C(F)F)n1 [Fluxapyroxad] : 180.37
CC(C)(c1cc(Br)c(O)c(Br)c1)c1cc(Br)c(O)c(Br)c1 [Tetrabromobisphenol A] : 192.83
CC(Oc1ccc(Oc2nc3ccc(Cl)cc3o2)cc1)C(=O)O (stereo not drawn) [Fenoxaprop-P] : 189.16
O=C(O)C(F)(F)C(F)(F)C(F)(F)C(F)(F)F [Perfluoropentanoic acid] : 129.75
O=c1[nH]c2ccccc2s1 [2-Hydroxybenzothiazole] : 122.14
O=C(O)C(F)(F)C(F)(F)C(F)(F)C(F)(F)C(F)(F)C(F)(F)F [Perfluoroheptanoic acid] : 146.98

----------
Form field: collision cross section (one value per entry).
# protocol-text: collision cross section (TIMS, N2 drift gas) of the primary ion; higher = larger gas-phase ion size
# experimental-conditions: ionization mode: ESI-; ion species: [M-H]-
reported-property: collision cross section (Å²)

C[C@@H]1NC(C)(C)CO[C@@]1(O)c1cccc(Cl)c1 [(S,S)-Hydroxybupropion] : 159.63
Cc1cc(O)ccc1Cl [p-Chlorocresol] : 122.21
CCC1=C(C)CN(C(=O)NCCc2ccc(S(=O)(=O)NC(=O)NC3CCC(C)CC3)cc2)C1=O (centres undefined) [Glimepiride] : 215.02
O=S(=O)(O)C(F)(F)C(F)(F)C(F)(F)C(F)(F)C(F)(F)C(F)(F)F [Perfluorohexanesulfonic acid] : 150.32

----------
# protocol-text: collision cross section (TIMS, N2 drift gas) of the primary ion; higher = larger gas-phase ion size
# experimental-conditions: ionization mode: ESI+; ion species: [M]+
Reported collision cross section is given for each of the following compounds.
reported-property: collision cross section (Å²)

CC(C)(C)CC(C)(C)c1ccc(OCCOCC[N+](C)(C)Cc2ccccc2)cc1 : 211.12
C[N+](C)(C)CC1CO1 (stereo unspecified) : 117.85
CCCCCCCCCCCC(=O)NCCC[N+](C)(C)CC(=O)O : 200.11
CCCC[N+]1(C)[C@H]2CC(OC(=O)C(CO)c3ccccc3)C[C@H]1[C@H]1O[C@H]12 (stereo partly specified) : 188.31
CCCCCCCCCCCC[N+](C)(C)Cc1ccccc1 : 196.05
CCN(CCO)c1ccc(N=Nc2sc3cc(OC)ccc3[n+]2C)cc1 : 195.62

----------
reversed-phase LC retention time values, listed per item
# protocol-text: reversed-phase LC retention time (C18, 15 min MeOH gradient); higher = more hydrophobic / later elution
# experimental-conditions: ionization mode: ESI+; ion species: [M+H]+
reported-property: reversed-phase LC retention time (min)

COc1ccc2c(c1)[nH]c1c(C)nccc12 : 9.71
CCN(CC)CC(=O)Nc1c(C)cccc1C : 8.29
CCC(C(N)=O)(C(N)=O)c1ccccc1 [Phenylethylmalonamide] : 7.73
CCCCC(C#N)(Cn1cncn1)c1ccc(Cl)cc1 (centres undefined) : 14.5
c1ccc2[nH]nnc2c1 : 7.82
O=C1Nc2ccc(Cl)cc2C(c2ccccc2)=NC1O (centres undefined) : 13.1
CCC(C)OC(=O)N1CCCCC1CCO (centres undefined) : 13.6
C#CCOc1ccc(CCNC(=O)C(OCC#C)c2ccc(Cl)cc2)cc1OC (centres undefined) : 14.2
COc1ccc(Cl)cc1C(=O)NCCc1ccc(S(=O)(=O)NC(=O)NC2CCCCC2)cc1 [Glibenclamide] : 14.8
CC(C)N(C(=O)CCl)c1ccccc1 : 13
COC(=O)Nc1nc2ccc(C(=O)c3ccccc3)cc2[nH]1 : 12.4
CC(O)(CS(=O)(=O)c1ccc(F)cc1)C(=O)Nc1ccc(C#N)c(C(F)(F)F)c1 (centres undefined) [Bicalutamide] : 13.4
CC(COc1ccc(Oc2ccccc2)cc1)Oc1ccccn1 (centres undefined) : 16.9
O=C1NC(=O)C(c2ccccc2)(c2ccccc2)N1 : 11.9
C[C@@H]1NC(C)(C)CO[C@@]1(O)c1cccc(Cl)c1 [(S,S)-Hydroxybupropion] : 9.89
CC1(C)CC(N(C=O)CCCCCCN(C=O)C2CC(C)(C)NC(C)(C)C2)CC(C)(C)N1 [Univul-4050H] : 7.4
CC/C(=C(\c1ccccc1)c1ccc(OCCN(C)C)cc1)c1ccccc1 : 15.7
O=C1C=C(N(Cc2ccc(Cl)nc2)CC(F)F)CO1 : 9.35
O=c1[nH]c2ccccc2s1 [2-Hydroxybenzothiazole] : 10.5
